Source of measurements: PubChem BioAssay (NCI)

tested on: OVCAR-4 ovarian; assay: NCI-60 one-dose screen, 48 h; conditions: 10 µM unless noted
The panel holds about 83,000 compounds, 20% with a hit somewhere; the sample as a whole holds those more often. Activity calls are given as the source filed them. How the source made its calls: active means growth percent below 10; inactive means the rest.
Classes used: active, inactive

| compound | targetUnderTest | categoryLabel |
| --- | --- | --- |
| COc1ccc(NC(=O)CSc2nc3ccccc3c(=O)n2-c2ccccc2C(F)(F)F)c(OC)c1OC | OVCAR-4 ovarian | inactive |
| O=C1N=C(c2c(-c3[nH]c(=O)c4ccc(Br)cc4c3O)c(O)c3ccccc3c2O)C(=O)c2cc(Br)ccc21 | OVCAR-4 ovarian | active |
| CCCCCCOc1ccc(C2(Cl)c3ccccc3N(C)c3ccccc32)cc1 | OVCAR-4 ovarian | inactive |
| Clc1nc2ccccc2nc1CI | OVCAR-4 ovarian | inactive |
| Cc1cc2c(C(C)C)c(O)c(O)c(C=NCCCCC(=O)O)c2c(O)c1-c1c(C)cc2c(C(C)C)c(O)c(O)c(C=NCCCCC(=O)O)c2c1O | OVCAR-4 ovarian | inactive |
| C=C1C(=O)O[C@H]2[C@H]1CC/C(COC(=O)NCc1cc(OC)cc(OC)c1)=C\CC[C@@]1(C)O[C@@H]21 | OVCAR-4 ovarian | active |
| CCNC(=O)CCCCC(=O)c1c(C)[nH]c(/C=C2\N=C(c3ccc[nH]3)C=C2OC)c1C | OVCAR-4 ovarian | active |
| COc1ccc(-c2nc3sccn3c2-c2ccnc(NCCCNS(=O)(=O)c3ccc(C)cc3)n2)cc1 | OVCAR-4 ovarian | inactive |
| CCN(CC)P(=O)(N(CC)CC)N(CCCSC/C=C(\C)CC/C=C(\C)CCC=C(C)C)CCCN1CCN(C)CC1 | OVCAR-4 ovarian | inactive |
| COc1cccc(-c2nc3sccn3c2-c2ccnc(NCCCNS(=O)(=O)c3ccccc3)n2)c1 | OVCAR-4 ovarian | inactive |
| FC(F)(F)c1cccc(-n2nnc3cnc(Nc4ccc(N5CCCCC5)cc4)nc32)c1 | OVCAR-4 ovarian | active |
| CN(C)C/C=C/C(=O)Nc1cc2c(Nc3ccc(F)c(Cl)c3F)ncnc2cc1OCCOC(F)F | OVCAR-4 ovarian | inactive |
| CN=S(=O)(NC(=O)c1ccc(Cl)cc1Cl)c1ccc(Br)s1 (stereo unspecified) | OVCAR-4 ovarian | inactive |
| COc1cc(Cn2c(SCC(=O)Nc3cc(OC)c(OC)c(OC)c3)nc3ccccc3c2=O)cc(OC)c1OC | OVCAR-4 ovarian | inactive |
| O=S(=O)(NCCNc1cc(-c2cn(-c3ccccc3)nc2-c2ccccc2)ccn1)c1ccc(F)cc1 | OVCAR-4 ovarian | inactive |
| COc1ccc(/C=C(\C#N)c2ccc([N+](=O)[O-])cc2)c2ccccc12 | OVCAR-4 ovarian | active |
| O=c1c2cccc3c(Nc4ccc(F)cc4)ccc(c32)c2nc3ccccc3n12 | OVCAR-4 ovarian | inactive |
| Nc1nc(-c2ccccc2)cs1 | OVCAR-4 ovarian | inactive |
| CCC(=O)Oc1ccc2c(c1)CC[C@@H]1[C@@H]2CC[C@]2(C)C[C@H](OC(=O)CC)C[C@@H]12 | OVCAR-4 ovarian | inactive |
| CCOC(=O)C(Cc1ccccc1)n1c(O)c(C=Nc2ccc(C(=O)OCCN(CC)CC)cc2)sc1=O (stereo unspecified) | OVCAR-4 ovarian | inactive |
| CC(C)[C@H](CO)Nc1nc(Nc2ccc(C(=O)NCCNS(=O)(=O)c3cccc4c(N(C)C)cccc34)c(Cl)c2)c2ncn(C(C)C)c2n1 | OVCAR-4 ovarian | inactive |
| COc1ccc(-c2cn[nH]c2-c2cc(OC)c3c(c2)OCCO3)cc1 | OVCAR-4 ovarian | inactive |
| C/C(=C\c1csc(C)n1)[C@@H]1C[C@@H]2O[C@]2(C)CCC[C@H](C)[C@H](O)[C@@H](C)C(=O)C(C)(C)[C@@H](O)CC(=O)N1 | OVCAR-4 ovarian | inactive |
| O=C(Nc1cccc(Cl)c1)c1cc([N+](=O)[O-])ccc1O | OVCAR-4 ovarian | inactive |
| Cc1ccc(C2=NN(c3ccc(S(N)(=O)=O)cc3)C(c3cn(-c4ccccc4)nc3-c3ccccc3)C2)cc1 (stereo unspecified) | OVCAR-4 ovarian | inactive |
| Nc1nc(-c2cc3ccccc3o2)cc(=O)c(=O)[nH]1 | OVCAR-4 ovarian | inactive |
| COC1=CC(c2ccc[nH]2)=N/C1=C\c1[nH]c(C)c(C(=O)CCCCC(=O)NCc2ccccc2)c1C | OVCAR-4 ovarian | inactive |
| C/C1=C\CCC2(C)OC2CC2CCC(C)(O)C(CC1)C2(C)C (stereo unspecified) | OVCAR-4 ovarian | inactive |
| CCN(CC)CCCNc1nc(C)cc(Nc2ccc3nc(C)cc(N)c3c2)n1 | OVCAR-4 ovarian | inactive |
| CN(C)C/C=C/C(=O)Nc1cc2c(Nc3cccc(Cl)c3F)ncnc2cc1OCCOC(F)F | OVCAR-4 ovarian | inactive |
| NC(=O)c1c(NC(=O)c2ccc3c(c2)OCO3)sc2c1CCC(=O)C2 | OVCAR-4 ovarian | active |
| CCNC(=O)C1CCCN1C(=O)C(CCCN=C(N)N)NC(=O)C(CC(C)C)NC(=O)C(CC(C)C)NC(=O)C(Cc1ccc(O)cc1)NC(=O)C(CO)NC(=O)C(Cc1c[nH]c2ccccc12)NC(=O)C(Cc1cnc[nH]1)NC(=O)C1CCC(=O)N1 (stereo unspecified) | OVCAR-4 ovarian | inactive |
| COc1ccc(OC)c(-c2ccc(-c3ccccc3N)c3[nH]c4ccccc4c23)c1 | OVCAR-4 ovarian | inactive |
| CCN1C(=O)/C(=c2\sc3n(c2=O)C2C(NN=3)N(CC)C(=S)N2CC)c2ccccc21 (stereo unspecified) | OVCAR-4 ovarian | inactive |
| COc1cc(NCCCN=C(N)NC(N)=NC(C)C)c2ncccc2c1 | OVCAR-4 ovarian | inactive |
| O=C1NC(Cc2c[nH]c3ccccc23)C(=O)N1Cc1ccc(Cl)cc1 (stereo unspecified) | OVCAR-4 ovarian | inactive |

====

system: SNB-19 CNS; test: NCI-60 one-dose screen, 48 h (100 = growth as untreated, 0 = no growth, -100 = all killed); conditions: 10 µM unless noted
The panel holds about 83,000 compounds, 20% with a hit somewhere; the sample as a whole holds those more often.
One threshold, 90%, splits the recorded growth values: lower ones are True, equal or higher ones are False.

| compound | targetUnderTest | categoryLabel |
| --- | --- | --- |
| CCCCCC/C=C\CCCCCCCCOc1ccc(CCOP(=O)(O)OCC[N+](C)(C)C)cc1 | SNB-19 CNS | True |
| O=C(C[N+](=O)[O-])c1ccc(Cl)cc1 | SNB-19 CNS | False |
| COC1=CC(c2ccc[nH]2)=N/C1=C\c1[nH]c(C)c(C(=O)CCCCC(=O)NCc2ccccc2)c1C | SNB-19 CNS | True |
| COc1ccc(/C(=N/O)c2cc(OC)c(OC)c(OC)c2)c(OC)c1N | SNB-19 CNS | True |
| CCCCCc1c(C)[nH]c(/C=c2\[nH]/c(=C3/C=c4ccccc4=N3)cc2OC)c1C | SNB-19 CNS | True |
| CCCCCCOc1ccc(C2(Cl)c3ccccc3N(C)c3ccccc32)cc1 | SNB-19 CNS | True |
| O=S(=O)(NCCCNc1cc(-c2cn(-c3ccccc3)nc2-c2cccc(O)c2)ccn1)c1ccc(Cl)cc1 | SNB-19 CNS | True |
| COc1cc(-c2csc(NC(=O)c3cc(C(F)(F)F)cc(C(F)(F)F)c3)n2)cc(OC)c1OC | SNB-19 CNS | True |
| COc1ccc(OC)c(NC(=O)c2cc(S(=O)(=O)N3CCc4ccccc43)ccc2OC)c1 | SNB-19 CNS | True |
| COc1ccc(N=C2NN=C(c3ccc(F)cc3)CS2)cc1OC | SNB-19 CNS | False |
| O=C1CCC(=O)N1Cc1ccccc1 | SNB-19 CNS | False |
| COc1ncc(-c2ccc3ncnc(Nc4cccc(Cl)c4)c3c2)cc1NS(=O)(=O)C1CC1 | SNB-19 CNS | True |
| CC(C)(C)c1ccc(S(=O)(=O)Oc2ccc3c4c(c(=O)oc3c2)CCCCC4)cc1 | SNB-19 CNS | True |
| CN(C)CCCNC(=O)C(c1ccccc1)c1ccccc1 | SNB-19 CNS | False |
| COc1cc(C2C=C(C)N=C3SC=C(C)N32)cc(OC)c1OC (configuration not stated) | SNB-19 CNS | True |
| C#CCN1C(=O)/C(=c2\sc3n(c2=O)C2C(NN=3)N(CC)C(=O)N2CC)c2ccccc21 (configuration not stated) | SNB-19 CNS | True |
| Cc1ccc2c(c1)C(=O)C(c1c(-c3[nH]c(=O)c4ccc(C)cc4c3O)c(O)c3ccccc3c1O)=NC2=O | SNB-19 CNS | True |
| CCc1cccc(C)c1NC(=O)c1sc2nc3c(cc2c1N)C(=O)CCC3 | SNB-19 CNS | True |
| O=C(c1c[nH]c2ccccc12)C(Sc1nc2ccccc2c(=O)[nH]1)c1ccccc1 (configuration not stated) | SNB-19 CNS | False |
| O=S(=O)(NCCNc1cc(-c2cn(-c3ccccc3)nc2-c2ccccc2)ccn1)c1cccc2ccccc12 | SNB-19 CNS | True |
| COC12CC(=O)C(C(C)=O)=C(O)C1(C)c1c(O)c(C)c(O)c(C(C)=O)c1O2 (configuration not stated) | SNB-19 CNS | True |
| CN(C)c1ccc(-c2ccc(-c3ccc(C(=N)N)cn3)o2)cc1 | SNB-19 CNS | True |
| NC(CC(N)C(=O)O)C(=O)O (configuration not stated) | SNB-19 CNS | False |
| COc1ccc(NC(=O)/N=c2\oc3c(OC)cccc3cc2-c2cc3ccccc3[nH]2)cc1 | SNB-19 CNS | True |
| O=c1oc2cc(OS(=O)(=O)c3ccc(F)cc3)ccc2c2c1CCCCC2 | SNB-19 CNS | True |
| Cc1nc(Nc2cccnc2)sc1C(=O)/C=C/c1ccc(Cl)cc1 | SNB-19 CNS | True |
| NS(=O)(=O)c1ccc(NCC(=O)Nc2ccc(-c3nc4ccccc4s3)cc2)cc1 | SNB-19 CNS | True |
| CCCCOc1nc2c(C)cccc2cc1C1CNC(=O)c2ccccc2N1 (configuration not stated) | SNB-19 CNS | True |
| O=S=Nc1ccc([N+](=O)[O-])cc1 | SNB-19 CNS | False |
| COc1ccc2c(c1)NC(=O)CN2c1nc(C)nc2ccccc12 | SNB-19 CNS | True |
| COc1cc(NC(=O)CCl)ccc(=O)c1 | SNB-19 CNS | False |
| COc1ccc(/C=C/c2cc(N3CCOCC3)c3cc(F)c(F)cc3n2)cc1OC | SNB-19 CNS | True |
| CC(Br)C(O)c1cc2c(cc1Br)OCO2 (configuration not stated) | SNB-19 CNS | False |
| COc1ccccc1OCC(=O)Nc1sc2c(c1C(N)=O)CCC2 | SNB-19 CNS | True |
| COc1ncc(-c2ccc3ncnc(Nc4cccc(Cl)c4)c3c2)cc1N(S(C)(=O)=O)S(C)(=O)=O | SNB-19 CNS | True |
| CCC1CCc2nc3sc(C(=O)Nc4cccc(C)c4)c(N)c3cc2C1 (configuration not stated) | SNB-19 CNS | True |
| CCC(c1cccc(Br)c1)C(C(=O)O)c1ccc(OC)cc1 (configuration not stated) | SNB-19 CNS | False |
| COc1ccc(C(=O)/C=C/c2ccc(/C=C/c3cc(OC)c(OC)c(OC)c3)cc2)cc1 | SNB-19 CNS | True |
| CCCCCCCCCCn1cc[n+](C)c1 | SNB-19 CNS | True |
| O=C1CCCCC=C1C[N+](=O)[O-] | SNB-19 CNS | False |
